Data origin: patent US11925624B2

Experiment: Phase 1 single ascending dose (Part A) pharmacokinetics, fasted state
Assay type: in vivo, human
Details: human, urine and plasma, oral, 1600 mg single dose (A6)

| COMPOUND | CL renal |
| --- | --- |
| Cn1cc(-c2cn(-c3ccc(OC(F)(F)F)cc3)c(=O)c3ncn(C)c23)cn1 [Compound I] | 47.6 mL/min |

----------
Experiment: Phase 1 Part A food effect (high-fat / low-fat breakfast) on single-dose pharmacokinetics
Format: in vivo, human
Conditions: human, plasma, oral, 400 mg, Table 3, 4th section, head as printed:, n = 6; read-out: LS Means AUC0-∞ (Test)

| SMILES_ENTRY | AUC(0-inf) |
| --- | --- |
| Cn1cc(-c2cn(-c3ccc(OC(F)(F)F)cc3)c(=O)c3ncn(C)c23)cn1 | 160 µg·h/mL |

----------
Assay: Phase 1 Part A food effect (high-fat / low-fat breakfast) on single-dose pharmacokinetics
Format: in vivo, human
Conditions: human, plasma, oral, 800 mg, 800 mg single dose (A5), Fed, Low-fat; read-out: AUC0-∞

| MOLECULE | AUC(0-inf) [µg·h/mL] |
| --- | --- |
| Cn1cc(-c2cn(-c3ccc(OC(F)(F)F)cc3)c(=O)c3ncn(C)c23)cn1 [Compound I] | 160 |

----------
Assay: Phase 1 multiple ascending dose (Part B) pharmacokinetics after low-fat meal
Assay type: in vivo, human
Details: human, urine and plasma, oral, 200 mg, 200 mg BID (B1), Day 1, low-fat meal

| SMILES_ENTRY | CL renal [mL/min] |
| --- | --- |
| Cn1cc(-c2cn(-c3ccc(OC(F)(F)F)cc3)c(=O)c3ncn(C)c23)cn1 | 50.2 |

----------
Assay: Phase 1 single ascending dose (Part A) pharmacokinetics, fasted state
Assay type: in vivo, human
Settings: human, urine, oral, 25 mg single dose (A1)
MEASUREMENT_NAME: CL renal (mL/min)

| COMPOUND | MEASUREMENT_NAME | RESULT_UNITS | RESULT |
| --- | --- | --- | --- |
| Cn1cc(-c2cn(-c3ccc(OC(F)(F)F)cc3)c(=O)c3ncn(C)c23)cn1 [Compound I] | CL renal | mL/min | 70.5 |

----------
Assay: Phase 1 Part A food effect (high-fat / low-fat breakfast) on single-dose pharmacokinetics
Format: in vivo, human
Settings: human, plasma, oral, 400 mg, Table 3, 4th section, 400 mg Compound I Fasted, n = 6; read-out: LS Means Cmax (Reference)
MEASUREMENT_NAME: Cmax (ng/mL)

| SMILES_ENTRY | RESULT |
| --- | --- |
| Cn1cc(-c2cn(-c3ccc(OC(F)(F)F)cc3)c(=O)c3ncn(C)c23)cn1 | 5910 |

----------
Assay: Phase 1 Part A food effect (high-fat / low-fat breakfast) on single-dose pharmacokinetics
Type: in vivo, human
Conditions: human, plasma, oral, 400 mg, 400 mg single dose (A4), Fed, High-fat; read-out: AUC0-t

| MOLECULE | AUC(0-t) |
| --- | --- |
| Cn1cc(-c2cn(-c3ccc(OC(F)(F)F)cc3)c(=O)c3ncn(C)c23)cn1 [Compound I] | 80200 ng·h/mL |

----------
Assay: Phase 1 single ascending dose (Part A) pharmacokinetics, fasted state
Format: in vivo, human
Conditions: human, plasma, oral, 400 mg, 400 mg single dose (A4)
MEASUREMENT_NAME: half-life (min)

| SMILES_ENTRY | MEASUREMENT_NAME | RESULT_UNITS | RESULT |
| --- | --- | --- | --- |
| Cn1cc(-c2cn(-c3ccc(OC(F)(F)F)cc3)c(=O)c3ncn(C)c23)cn1 | half-life | min | 702 |

----------
Test: Phase 1 single ascending dose (Part A) pharmacokinetics, fasted state
Assay type: in vivo, human
Conditions: human, plasma, oral, 25 mg, 25 mg single dose (A1)

| MOLECULE | half-life, h |
| --- | --- |
| Cn1cc(-c2cn(-c3ccc(OC(F)(F)F)cc3)c(=O)c3ncn(C)c23)cn1 [Compound I] | 3.6 |

----------
Assay: Phase 1 Part A proton pump inhibitor (rabeprazole) effect on single-dose pharmacokinetics
Format: in vivo, human
Conditions: human, plasma, oral, 800 mg single dose (A5), Fed, Low-fat, +20 mg Rabeprazole QD x 3
Excerpt: This study was a randomized, blinded, placebo-controlled, ascending-dose study to evaluate the safety, tolerability, and pharmacokinetic (PK) of single (Part A) and multiple (Part B) doses of Compound I in healthy subjects. […]

| SMILES_ENTRY | AUC(0-inf) / µg·h/mL |
| --- | --- |
| Cn1cc(-c2cn(-c3ccc(OC(F)(F)F)cc3)c(=O)c3ncn(C)c23)cn1 | 124 |

----------
Test: Phase 1 Part A food effect (high-fat / low-fat breakfast) on single-dose pharmacokinetics
Assay type: in vivo, human
Settings: human, plasma, oral, 400 mg, high-fat fed state; read-out: tmax values, range
MEASUREMENT_NAME: Tmax

| SMILES_ENTRY | RESULT |
| --- | --- |
| Cn1cc(-c2cn(-c3ccc(OC(F)(F)F)cc3)c(=O)c3ncn(C)c23)cn1 | 1.5 to 6 h |

----------
Test: Phase 1 multiple ascending dose (Part B) pharmacokinetics after low-fat meal
Format: in vivo, human
Settings: human, plasma, oral, 275 mg, 275 mg BID (B3), Day 1, low-fat meal; median

| SMILES_ENTRY | Tmax, h |
| --- | --- |
| Cn1cc(-c2cn(-c3ccc(OC(F)(F)F)cc3)c(=O)c3ncn(C)c23)cn1 | 2.28 |

----------
Assay: Phase 1 multiple ascending dose (Part B) pharmacokinetics after low-fat meal
Type: in vivo, human
Conditions: human, plasma, oral; 200 mg BID (B1), Day 7, low-fat meal

| SMILES_ENTRY | half-life at 7 day, h |
| --- | --- |
| Cn1cc(-c2cn(-c3ccc(OC(F)(F)F)cc3)c(=O)c3ncn(C)c23)cn1 | 4.9 |

----------
Experiment: Phase 1 single ascending dose (Part A) pharmacokinetics, fasted state
Format: in vivo, human
Conditions: human, plasma, oral, 25 mg single dose (A1)
MEASUREMENT_NAME: AUC(0-t) (ng·h/mL)

| SMILES_ENTRY | RESULT_UNITS | RESULT |
| --- | --- | --- |
| Cn1cc(-c2cn(-c3ccc(OC(F)(F)F)cc3)c(=O)c3ncn(C)c23)cn1 | ng·h/mL | 4550 |

----------
Assay: Phase 1 single ascending dose (Part A) pharmacokinetics, fasted state
Format: in vivo, human
Details: human, plasma, oral, 200 mg single dose (A3), read-out: Vz/F
MEASUREMENT_NAME: Vd/F (L)

| SMILES_ENTRY | MEASUREMENT_NAME | RESULT_UNITS | RESULT |
| --- | --- | --- | --- |
| Cn1cc(-c2cn(-c3ccc(OC(F)(F)F)cc3)c(=O)c3ncn(C)c23)cn1 | Vd/F | L | 102 |

----------
Test: Phase 1 single ascending dose (Part A) pharmacokinetics, fasted state
Type: in vivo, human
Conditions: human, plasma, oral, 200 mg single dose (A3)
MEASUREMENT_NAME: AUC(0-t) (ng·h/mL)

| COMPOUND | RESULT |
| --- | --- |
| Cn1cc(-c2cn(-c3ccc(OC(F)(F)F)cc3)c(=O)c3ncn(C)c23)cn1 [Compound I] | 32300 |

----------
Test: Phase 1 multiple ascending dose (Part B) pharmacokinetics after low-fat meal
Assay type: in vivo, human
Conditions: human, plasma, oral; 525 mg QD (B2), Day 7, low-fat meal; read-out: Vz/F(norm)

| SMILES_ENTRY | Vd/F, L/kg |
| --- | --- |
| Cn1cc(-c2cn(-c3ccc(OC(F)(F)F)cc3)c(=O)c3ncn(C)c23)cn1 | 1.4 |

----------
Test: Phase 1 Part A food effect (high-fat / low-fat breakfast) on single-dose pharmacokinetics
Format: in vivo, human
Conditions: human, plasma, oral, 400 mg, Table 3, 4th section, 400 mg Compound I Fed, Low-fat, n = 6; read-out: LS Means Cmax (Test)

| SMILES_ENTRY | Cmax (ng/mL) |
| --- | --- |
| Cn1cc(-c2cn(-c3ccc(OC(F)(F)F)cc3)c(=O)c3ncn(C)c23)cn1 | 13300 |

----------
Assay: Phase 1 Part A proton pump inhibitor (rabeprazole) effect on single-dose pharmacokinetics
Format: in vivo, human
Details: human, plasma, oral, 400 mg single dose (A4), Fasted, +20 mg Rabeprazole QD x 3

| SMILES_ENTRY | half-life [h] |
| --- | --- |
| Cn1cc(-c2cn(-c3ccc(OC(F)(F)F)cc3)c(=O)c3ncn(C)c23)cn1 | 10.5 |

----------
Assay: Phase 1 Part A food effect (high-fat / low-fat breakfast) on single-dose pharmacokinetics
Format: in vivo, human
Details: human, plasma, oral, 800 mg, 800 mg single dose (A5), Fed, Low-fat; read-out: t1/2 (converted)
MEASUREMENT_NAME: half-life

| SMILES_ENTRY | RESULT |
| --- | --- |
| Cn1cc(-c2cn(-c3ccc(OC(F)(F)F)cc3)c(=O)c3ncn(C)c23)cn1 | 524 min |
